Reported pKi values for the following compounds.
# tested_system: H1 histamine receptor (Bos taurus, UniProt P30546)
# Construct: the receptors were obtained from bovine cerebellar membrane tissue; from tissue; host or cells: bovine cerebellar membranes
# Sequence (P30546 whole entry): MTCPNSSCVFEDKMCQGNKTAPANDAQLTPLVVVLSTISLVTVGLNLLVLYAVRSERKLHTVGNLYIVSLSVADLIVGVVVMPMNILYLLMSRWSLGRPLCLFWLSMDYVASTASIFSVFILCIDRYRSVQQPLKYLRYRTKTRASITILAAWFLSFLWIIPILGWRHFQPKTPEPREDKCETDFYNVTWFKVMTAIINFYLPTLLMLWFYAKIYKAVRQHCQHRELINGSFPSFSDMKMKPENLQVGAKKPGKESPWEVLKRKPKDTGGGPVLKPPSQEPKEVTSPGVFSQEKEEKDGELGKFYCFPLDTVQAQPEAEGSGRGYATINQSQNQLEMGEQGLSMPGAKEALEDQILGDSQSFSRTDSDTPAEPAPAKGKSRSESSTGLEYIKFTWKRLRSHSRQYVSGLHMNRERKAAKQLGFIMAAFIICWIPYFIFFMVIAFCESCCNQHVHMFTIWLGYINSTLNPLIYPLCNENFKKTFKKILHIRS
# experimental_protocol: Histamine H1 competitive binding assay ([3H]pyrilamine)
# Design: species or system bovine
# condition_set: read-out: Ki H1
Lab note: report pKi as minus log10 of the concentration in molar units, number only.

// worked examples, pKi included
1. O=C(O)C1(CCN2CCC(=C3c4ccc(Cl)cc4COc4ccccc43)CC2)CC1 [Compound 59b]    7.18
2. COc1ccc2c(c1)COc1ccccc1C2=C1CCN(CCC(C)(C)C(=O)O)CC1 [Compound 62a]    6.89
3. O=C(O)C1(CN2CCC(=C3c4ccccc4COc4ccccc43)CC2)CC1 [Compound 69b]    7.26
4. CC(C)(CN1CCC(=C2c3ccc(F)cc3COc3ccccc32)CC1)C(=O)O [Compound 49a]    7.16
5. COc1ccc2c(c1)COc1ccccc1C2=C1CCN(CC(C)(C)C(=O)O)CC1 [Compound 50a]    7.57

Please look up its pKi: CCC(CC)(CN1CCC(=C2c3ccc(F)cc3COc3ccccc32)CC1)C(=O)O [Compound 49c]
7.52

Please look up its pKi: O=C(O)C1(CCN2CCC(=C3c4ccc(F)cc4COc4ccccc43)CC2)CC1 [Compound 61b]
7.91

---

Reported pKi values for the following compounds.
# tested_system: M1 muscarinic receptor (Homo sapiens, UniProt P11229)
# Sequence (P11229 whole entry): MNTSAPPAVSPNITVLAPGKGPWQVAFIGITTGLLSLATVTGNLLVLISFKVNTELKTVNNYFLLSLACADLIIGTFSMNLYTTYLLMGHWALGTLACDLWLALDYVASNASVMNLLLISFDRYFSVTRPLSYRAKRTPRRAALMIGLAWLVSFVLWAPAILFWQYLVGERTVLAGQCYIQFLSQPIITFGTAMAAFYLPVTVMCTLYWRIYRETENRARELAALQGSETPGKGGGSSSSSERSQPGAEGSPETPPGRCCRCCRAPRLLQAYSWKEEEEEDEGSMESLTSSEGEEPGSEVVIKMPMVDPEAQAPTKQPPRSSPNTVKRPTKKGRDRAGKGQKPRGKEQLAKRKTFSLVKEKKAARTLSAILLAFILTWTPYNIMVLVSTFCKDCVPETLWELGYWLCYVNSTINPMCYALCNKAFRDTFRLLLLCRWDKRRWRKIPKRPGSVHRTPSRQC
# experimental_protocol: Muscarinic M1 binding assay ([3H]-scopolamine, N-methyl chloride)
pKi: −log10 of the molar value.

1) COc1ccc2c(c1)COc1ccc(F)cc1C2=C1CCN(CC2(C(=O)O)CC2)CC1 [Compound 10519]    < 5.00
2) COc1ccc2c(c1)COc1ccc(F)cc1C2=C1CCN(CCC(=O)O)CC1 [Compound 10518]    < 5.00

Please look up its pKi: COc1ccc2c(c1)COc1ccc(F)cc1C2=C1CCN(CCCC(=O)O)CC1 [Compound 10520]
< 5.00

---

Please consider the recorded pKi for human H1 receptor (Homo sapiens) in what follows.
Lab note: report pKi as minus log10 of the concentration in molar units, number only.

1. COc1ccc2c(c1)COc1ccc(F)cc1C2=C1CCN(CCCC(=O)O)CC1 [Compound 10520]    7.37
2. COc1ccc2c(c1)COc1ccc(F)cc1C2=C1CCN(CC2(C(=O)O)CC2)CC1 [Compound 10519]    7.47

Kindly review the next molecule as well.
Entry COc1ccc2c(c1)COc1ccc(F)cc1C2=C1CCN(CCC(=O)O)CC1 [Compound 10518] , system human H1 receptor (Homo sapiens): what pKi was measured?
7.46

---

Reported pKi values for the following compounds.
# tested_system: Adrenergic, Alpha 2, Non-selective
# experimental_protocol: Table 12 panel: Adrenergic, Alpha 2
# condition_set: read-out: α2 binding
pKi: −log10 of the molar value.

// worked examples, pKi included
1. COc1ccc2c(c1)COc1ccc(F)cc1C2=C1CCN(CCCC(=O)O)CC1 [Compound 10520]    < 5.00
2. COc1ccc2c(c1)COc1ccc(F)cc1C2=C1CCN(CC2(C(=O)O)CC2)CC1 [Compound 10519]    < 5.00

Kindly review the next compound as well.
Please look up its pKi: COc1ccc2c(c1)COc1ccc(F)cc1C2=C1CCN(CCC(=O)O)CC1 [Compound 10518]
< 5.00

Recorded values, source patent US7326721B2.
